target-system: PaMTADA (Pseudomonas aeruginosa)
Sequence (Q9HZ64 1-444): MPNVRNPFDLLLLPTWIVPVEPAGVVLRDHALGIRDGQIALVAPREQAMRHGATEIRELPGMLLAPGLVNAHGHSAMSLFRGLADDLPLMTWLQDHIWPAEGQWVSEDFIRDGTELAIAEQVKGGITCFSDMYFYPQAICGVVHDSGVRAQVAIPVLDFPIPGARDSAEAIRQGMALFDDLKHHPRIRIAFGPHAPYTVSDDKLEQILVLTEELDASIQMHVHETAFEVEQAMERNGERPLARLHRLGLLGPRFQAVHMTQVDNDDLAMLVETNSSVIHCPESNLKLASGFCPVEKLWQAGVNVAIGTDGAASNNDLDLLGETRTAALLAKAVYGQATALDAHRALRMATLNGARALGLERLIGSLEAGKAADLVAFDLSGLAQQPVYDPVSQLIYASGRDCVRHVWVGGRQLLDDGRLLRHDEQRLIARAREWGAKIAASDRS
experiment-summary: Inhibition of cellular PaMTADA activity, MTCF added to LB medium during growth
Type: cell-based, Pseudomonas aeruginosa PAO1
test-conditions: MTCF in LB medium during growth; corrected for residual activity
Experimental: Inhibition of cellular PaMTADA activity. Inhibition of PaMTADA activity in cell lysates was carried out as follows. P. aeruginosa PAO1 (ATCC number: 15692) was grown at 37° C. to stationary phase in LB medium for 16 hours. Cells were collected by centrifugation at 16,100 g and washed three times with 100 mM phosphate, pH 7.4. […] The UV absorbance at 260 nm was monitored. […] The cpm of ^14C was counted at 20 min per cycle for three cycles using a Tri-Carb 2910TR liquid scintillation analyzer. […]
recorded-metric: pIC50
Lab note: report pIC50 as minus log10 of the concentration in molar units, number only.

Lookup: Please report pIC50 for the following compound: `CSC[C@H]1O[C@@H](n2cnc3c2N=CNC[C@H]3O)[C@H](O)[C@@H]1O`
Found: 8.52

The origin of these recorded values is patent US9522159B2.
